Target: T1, Cowpea mosaic virus (CPMV) (Cowpea mosaic virus), P03599
T1 chain 1: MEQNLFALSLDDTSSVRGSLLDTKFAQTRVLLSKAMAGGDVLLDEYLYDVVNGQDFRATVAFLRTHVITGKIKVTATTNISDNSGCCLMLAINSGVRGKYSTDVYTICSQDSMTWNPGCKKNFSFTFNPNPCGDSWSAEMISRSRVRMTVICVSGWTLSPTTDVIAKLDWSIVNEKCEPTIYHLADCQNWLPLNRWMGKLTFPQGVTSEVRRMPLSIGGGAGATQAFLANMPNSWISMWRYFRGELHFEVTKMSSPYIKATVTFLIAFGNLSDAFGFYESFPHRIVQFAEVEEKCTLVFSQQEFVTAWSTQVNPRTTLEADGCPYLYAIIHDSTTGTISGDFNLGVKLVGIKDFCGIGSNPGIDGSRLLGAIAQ
T1 chain 2: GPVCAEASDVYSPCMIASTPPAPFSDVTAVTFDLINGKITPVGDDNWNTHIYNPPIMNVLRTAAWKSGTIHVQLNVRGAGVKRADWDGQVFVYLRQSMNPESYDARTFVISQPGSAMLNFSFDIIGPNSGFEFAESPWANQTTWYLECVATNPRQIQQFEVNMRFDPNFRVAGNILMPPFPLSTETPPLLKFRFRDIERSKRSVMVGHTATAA
Assay: from competition binding ELISA against MPSEF phage on coated CPMV
pKd: −log10 of the molar value. Primed or numbered codes have the meaning given here. Ends that are not written are not given here. FITC′ = fluorescein isothiocyanate

| Binder | pKd |
| --- | --- |
| GWRVSEFGGGSK-biotin (not fully specified (residue 12)) [CBP-biotin (N-…/biotin/-C)] | 8.15 |
| GWRVSEFGGGSK-{FITC′} (not fully specified (residue 12)) [CBP-FITC (N-…/FITC/-C)] | 6.15 |
